PROCEDURE TEXT: Stability of compounds in human blood plasma
Format: in vitro ADME
Numbered stars: 1 amine (or outer) side, 2 acyl side, 3 side chain; on linkers, the order of the positions; unused ones are H or OH. Square brackets hold non-standard residues; d marks the D form. Peptide text beside a SMILES is read from it. * marks the point of attachment. Gly(1-amidinopiperidin-4-yl) = N=C(N)N1CCC([C@H](N)C(=O)O)CC1; X1 = CC(C)c1oc([C@H](CO)N[*:1])nc1C(=O)[*:2]; Pro(3R-Ph) = O=C(O)[C@H]1NCC[C@@H]1c1ccccc1; Met(O) = CS(=O)CC[C@H](N)C(=O)O; N(Me)CH2CH2Ph = CN(CCc1ccccc1)*; Tic = O=C(O)[C@@H]1Cc2ccccc2CN1; Cha = N[C@@H](CC1CCCCC1)C(=O)O; Nle = CCCC[C@H](N)C(=O)O; X5 = OCCN(Cc1ccccc1)*
Overview of reported Stability (Arbitrary units) Human 6 h across a group of molecules:

>  <MOLECULE>
CCCC[C@H](NC(=O)[C@@H]1Cc2ccccc2CN1C(=O)[C@@H](NC(=O)[C@H](CC1CCCCC1)NC(C)=O)C1CCN(C(=N)N)CC1)C(=O)N(CCO)Cc1ccccc1 [Compound P78, Ac-Cha-Gpg-Tic-Nle-N(Bn)CH2CH2OH] (Ac-[Cha][Gly(1-amidinopiperidin-4-yl)][Tic][Nle]-X5)

>  <Stability (Arbitrary units) Human 6 h>
73 Arbitrary units

$$$$
>  <MOLECULE>
CSCC[C@H](NC(=O)[C@@H]1Cc2ccccc2CN1C(=O)[C@H](CCCNC(=N)N)NC(=O)[C@H](CC1CCCCC1)NC(C)=O)C(=O)N(C)CCc1ccccc1 [Compound P84, Ac-Cha-Arg-Tic-Met-N(Me)CH2CH2Ph] (Ac-[Cha]R[Tic]M-{N(Me)CH2CH2Ph})

>  <Stability (Arbitrary units) Human 6 h>
131 Arbitrary units

$$$$
>  <MOLECULE>
CSCC[C@H](NC(=O)[C@@H]1Cc2ccccc2CN1C(=O)[C@H](CCCNC(=N)N)NC(=O)[C@H](CC1CCCCC1)NC(C)=O)C(N)=O [Compound P1, Ac-Cha-Arg-Tic-Met-NH2] (Ac-[Cha]R[Tic]M-NH2)

>  <Stability (Arbitrary units) Human 6 h>
94 Arbitrary units

$$$$
>  <MOLECULE>
CC(=O)N[C@@H](CC1CCCCC1)C(=O)N[C@H](C(=O)N1Cc2ccccc2C[C@H]1C(=O)N[C@@H](CC[S+](C)[O-])C(=O)N1CC[C@H](c2ccccc2)[C@H]1C(=O)N[C@@H](CO)c1nc(C(=O)N(C)C)c(C(C)C)o1)C1CCN(C(=N)N)CC1 (stereo partly drawn) [Compound P47] (Ac-[Cha][Gly(1-amidinopiperidin-4-yl)][Tic][Met(O)][Pro(3R-Ph)][X1]-NMe2)

>  <Stability (Arbitrary units) Human 6 h>
126 Arbitrary units

$$$$

====

Items are presented alongside their recorded Stability (Arbitrary units) Cath B 4 h.
TARGET OR TEST SYSTEM: Cathepsin B1 (EC 3.4.22.1 from bovine spleen) (Bos taurus, UniProt P07688)
CONDITION PARAMETERS: Cathepsin B, 4 h
Square brackets hold non-standard residues; d marks the D form. Peptide text beside a SMILES is read from it. * marks the point of attachment. Tic = O=C(O)[C@@H]1Cc2ccccc2CN1; Cha = N[C@@H](CC1CCCCC1)C(=O)O; Nle = CCCC[C@H](N)C(=O)O; X2 = OCCOCCN(Cc1ccccc1)*

>  <MOLECULE>
CCCC[C@H](NC(=O)[C@@H]1Cc2ccccc2CN1C(=O)[C@H](CCCNC(=N)N)NC(=O)[C@H](CC1CCCCC1)NC(C)=O)C(=O)N(CCOCCO)Cc1ccccc1 [Compound P98, Ac-Cha-Arg-Tic-Nle-N(Bn)CH2CH2OCH2CH2OH] (Ac-[Cha]R[Tic][Nle]-X2)

>  <Stability (Arbitrary units) Cath B 4 h>
104

$$$$
>  <MOLECULE>
CSCC[C@H](NC(=O)[C@@H]1Cc2ccccc2CN1C(=O)[C@H](CCCNC(=N)N)NC(=O)[C@H](CC1CCCCC1)NC(C)=O)C(=O)N(CCOCCO)Cc1ccccc1 [Compound P99, Ac-Cha-Arg-Tic-Met-N(Bn)CH2CH2OCH2CH2OH] (Ac-[Cha]R[Tic]M-X2)

>  <Stability (Arbitrary units) Cath B 4 h>
106

$$$$
